These measurements were taken from patent US20170183380A1.

target: HER2 on TUBO cells (mice cell line), HER2-overexpressing (UniProt P06494 23-1257); test: cell-based or functional assay
Sequence (P06494 23-1257): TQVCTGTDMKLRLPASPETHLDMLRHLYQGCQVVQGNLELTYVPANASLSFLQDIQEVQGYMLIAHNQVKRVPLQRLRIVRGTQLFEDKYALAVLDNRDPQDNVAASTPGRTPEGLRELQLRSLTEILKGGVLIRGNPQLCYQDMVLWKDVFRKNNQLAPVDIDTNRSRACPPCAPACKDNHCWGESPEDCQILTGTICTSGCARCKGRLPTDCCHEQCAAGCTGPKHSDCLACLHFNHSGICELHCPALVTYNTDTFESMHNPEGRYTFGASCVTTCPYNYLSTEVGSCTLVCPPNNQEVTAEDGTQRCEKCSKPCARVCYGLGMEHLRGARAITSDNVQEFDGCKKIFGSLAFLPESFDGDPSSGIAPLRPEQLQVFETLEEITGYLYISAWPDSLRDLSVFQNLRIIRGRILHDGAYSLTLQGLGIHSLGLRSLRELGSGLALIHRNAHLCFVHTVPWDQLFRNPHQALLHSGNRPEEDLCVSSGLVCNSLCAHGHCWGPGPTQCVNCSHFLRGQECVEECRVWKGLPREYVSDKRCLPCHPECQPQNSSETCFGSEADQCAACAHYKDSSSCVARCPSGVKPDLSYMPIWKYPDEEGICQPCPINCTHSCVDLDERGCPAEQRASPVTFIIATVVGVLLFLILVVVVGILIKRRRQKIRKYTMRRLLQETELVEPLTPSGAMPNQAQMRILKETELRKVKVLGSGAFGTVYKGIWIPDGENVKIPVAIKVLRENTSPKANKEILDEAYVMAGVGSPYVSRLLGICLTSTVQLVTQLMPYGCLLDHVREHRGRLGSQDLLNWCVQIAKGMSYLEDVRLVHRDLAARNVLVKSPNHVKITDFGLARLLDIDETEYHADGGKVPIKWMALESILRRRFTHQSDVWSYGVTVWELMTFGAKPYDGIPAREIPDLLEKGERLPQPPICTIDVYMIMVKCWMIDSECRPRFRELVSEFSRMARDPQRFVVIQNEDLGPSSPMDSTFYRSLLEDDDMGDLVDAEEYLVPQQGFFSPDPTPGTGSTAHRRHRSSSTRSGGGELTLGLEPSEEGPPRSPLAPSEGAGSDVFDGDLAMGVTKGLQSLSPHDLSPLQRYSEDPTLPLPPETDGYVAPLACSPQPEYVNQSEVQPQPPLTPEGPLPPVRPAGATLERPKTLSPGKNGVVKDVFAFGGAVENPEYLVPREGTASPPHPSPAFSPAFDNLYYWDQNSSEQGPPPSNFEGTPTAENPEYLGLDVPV
Where no end group is shown, it is not given here.
Listing of recorded IC50 (cytotoxicity, MTT assay), TUBO cells, 3 hours by entry.
VALUE KIND: IC50 (cytotoxicity, MTT assay), TUBO cells, 3 hours

[[record]]
binder = "C(Maleimide‑PEG2000‑DSPE)GGGLTVSPWY (not fully specified; also: order of spacer and peptide assumed) [LTVSPWY (SEQ ID NO: 1) peptide-liposome, post inserted liposome 100 Ligand]"
value_reported = "8.08 µM"

[[record]]
binder = "C(Maleimide‑PEG2000‑DSPE)GGGLTVSPWY (not fully specified; also: order of spacer and peptide assumed) [LTVSPWY (SEQ ID NO: 1) peptide-liposome, post inserted liposome 50 Ligand]"
value_reported = "9.7 µM"

[[record]]
binder = "C(Maleimide‑PEG2000‑DSPE)GGGLTVSPWY (not fully specified; also: order of spacer and peptide assumed) [LTVSPWY (SEQ ID NO: 1) peptide-liposome, post inserted liposome 200 Ligand]"
value_reported = "6.5 µM"

[[record]]
binder = "C(Maleimide‑PEG2000‑DSPE)GGGLTVSPWY (not fully specified; also: order of spacer and peptide assumed) [LTVSPWY (SEQ ID NO: 1) peptide-liposome, post inserted liposome 25 Ligand]"
value_reported = "11.1 µM"

